Where do the numbers come from? From PubChem BioAssay.

protocol notes: antimalarial activity against Dd2 strain (AID 2302)
condition summary: P. falciparum Dd2 in RBCs, LDH growth readout, 72 h; at 2 µM
Activity calls are given as the source filed them.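 How the source made its calls: active means growth inhibition above 50% at the single 2 µM test dose, taken to imply half-maximal potency below 2 µM; inactive means the rest.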
Possible outcomes: True (active), False (inactive)

compound string	classification
CN(C)c1ccc(CN2CCC(NC(=O)c3ccc(-c4ccccc4F)s3)CC2)cc1	False
O=C(Nc1cccc(-c2ccc(CN3CCNCC3)cc2)c1)c1cccc(Cl)c1	False
COc1ccc(-c2cccc(NC(=O)c3cccc(Cl)c3)c2)cc1CN1CCC(O)CC1	False
Cc1ccc(CN2CCCN(Cc3cccc(NC(=O)c4ccc(Cl)c(Cl)c4)c3)CC2)cc1	False
c1cc(-c2nc3ccccc3[nH]2)nc(-c2nc3ccccc3[nH]2)c1	False
CC(C)(C(=O)Nc1ccc(N2CCC3(CCCN(CC4CC4)C3)CC2)c(Cl)c1)c1cccc(C(F)(F)F)c1	False
CCOc1cc(C(=O)N[C@@H](Cc2ccccc2)[C@H](O)CNCc2cc(OC)cc(OC)c2)cc(N2CCCC2=O)c1	True
CCN(CCNC(=O)C1CCN(c2cc(-c3cccc(C)c3)ncn2)CC1)Cc1ccccc1	True
COCCn1c(Sc2ccc(C#N)c([N+](=O)[O-])c2)nnc1-c1ccc(N(C)C)cc1	True
